Biological target: T1, IL-18 receptor (IL-18Rα/IL-18Rβ) overexpressed on HEK-Blue IL-18 cells (Homo sapiens (Human), UniProt Q13478 19-541; O95256 20-599)
T1 sequence 1: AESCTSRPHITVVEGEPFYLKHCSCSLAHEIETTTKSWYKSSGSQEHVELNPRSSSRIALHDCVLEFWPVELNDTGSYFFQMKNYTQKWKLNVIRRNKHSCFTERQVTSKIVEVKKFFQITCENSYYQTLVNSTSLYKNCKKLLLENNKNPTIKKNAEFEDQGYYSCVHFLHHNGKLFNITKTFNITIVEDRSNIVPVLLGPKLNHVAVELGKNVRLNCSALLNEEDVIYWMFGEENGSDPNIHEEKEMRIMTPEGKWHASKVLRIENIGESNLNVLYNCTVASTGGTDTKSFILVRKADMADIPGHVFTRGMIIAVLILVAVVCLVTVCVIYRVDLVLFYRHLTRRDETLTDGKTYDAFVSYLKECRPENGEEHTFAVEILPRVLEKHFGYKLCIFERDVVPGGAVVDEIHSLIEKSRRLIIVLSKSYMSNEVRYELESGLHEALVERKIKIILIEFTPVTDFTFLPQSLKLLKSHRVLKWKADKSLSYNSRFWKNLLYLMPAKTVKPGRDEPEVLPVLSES
T1 sequence 2: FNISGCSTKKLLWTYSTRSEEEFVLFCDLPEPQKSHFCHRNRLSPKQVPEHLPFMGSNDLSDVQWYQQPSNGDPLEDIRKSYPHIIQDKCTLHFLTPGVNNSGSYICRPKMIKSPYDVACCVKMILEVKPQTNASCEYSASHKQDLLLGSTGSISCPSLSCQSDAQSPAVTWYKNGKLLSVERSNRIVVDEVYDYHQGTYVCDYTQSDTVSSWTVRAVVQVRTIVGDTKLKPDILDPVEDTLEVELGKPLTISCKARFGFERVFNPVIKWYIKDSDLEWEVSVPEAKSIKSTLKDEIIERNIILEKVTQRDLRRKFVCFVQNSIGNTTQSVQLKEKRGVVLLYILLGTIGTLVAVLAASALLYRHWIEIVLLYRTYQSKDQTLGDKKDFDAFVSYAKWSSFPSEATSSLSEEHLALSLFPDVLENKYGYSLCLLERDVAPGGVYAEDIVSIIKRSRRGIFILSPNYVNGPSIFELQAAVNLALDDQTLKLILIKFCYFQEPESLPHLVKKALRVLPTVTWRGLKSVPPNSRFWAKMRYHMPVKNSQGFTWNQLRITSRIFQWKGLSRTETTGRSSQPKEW
Assay: cell-based or functional assay
property: HEK-Blue IL-18: Abs 405 (Abs)

{"binder": "DGL313 (bispecific antibody, V domains shown) V domain 1: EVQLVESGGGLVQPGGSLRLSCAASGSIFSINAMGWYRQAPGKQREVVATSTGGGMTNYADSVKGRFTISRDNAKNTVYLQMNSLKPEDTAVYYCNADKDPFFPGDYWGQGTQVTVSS V domain 2: QVQLVESGGGLVQAGGSLRLSCAASGMFFSIGEMGWYRQAPGKQREMVARITRDGRINYADSVEGRFTASRNVAKTTLFLQMNSLKPEDTANYQCTVRRWDEEYWGKGTLVTVSD", "quantitative.result": 0.62}
{"binder": "DGL308 (bispecific antibody, V domains shown) V domain 1: QVQLVESGGGLVQAGGSLRLSCAASGRTFSSYDMGWFRQAPGKEREFVAALRWSGGSTSYADSVKGRFTISRDNAKNTVYLHMNSLKPEDTAVYYCAATLETDSGTYWADYWGQGTQVTVSS V domain 2: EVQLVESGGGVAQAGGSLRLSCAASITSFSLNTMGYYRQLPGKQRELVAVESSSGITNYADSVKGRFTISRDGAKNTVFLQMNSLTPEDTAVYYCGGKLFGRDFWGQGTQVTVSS", "quantitative.result": 1.48}
{"binder": "DGL312 (bispecific antibody, V domains shown) V domain 1: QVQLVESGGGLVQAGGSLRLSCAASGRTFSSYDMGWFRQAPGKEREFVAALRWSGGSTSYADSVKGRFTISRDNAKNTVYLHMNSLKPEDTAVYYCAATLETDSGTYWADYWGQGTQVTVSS V domain 2: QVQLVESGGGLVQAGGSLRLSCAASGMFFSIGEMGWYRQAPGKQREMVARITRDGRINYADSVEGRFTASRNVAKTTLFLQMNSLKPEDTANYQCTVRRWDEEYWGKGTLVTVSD", "quantitative.result": 0.63}
